Data provenance is paper PMC7704867.

target: Ac-^15N-F454G458G461-SW; assay: NMR titration
measured_attribute: pKd
Interpret pKd as the negative base-10 log of the concentration measured in mol/L.

Input: Please state recorded pKd (tested on Ac-^15N-F454G458G461-SW) of S100A10-AnxA2Nter fusion protein [S100A10(1–92)-ENLYFQGD linker-AnxA2 peptide (1–13)]
Output: 3.34
